- System: Escherichia coli
- test settings: Concentration 32 ug.mL-1;; ASSAY_TEST Inhibition of Bacterial Growth; detection method Absorption (OD600); MEDIA CAMHB; plate type 384well; NBS; CORNING #3640; time 18 hr
- Description: Antibacterial activity against Escherichia coli ATCC 25922 (CO-ADD:GN_001); MIC in CAMBH media using NBS plates, by OD(600)
Entries with a potency or affinity are not part of this list.
So I've got a bunch of molecules here, and I need their Inhibition values.
Answers are plain numbers, in %.

Solved entries (count: 3):
| smiles entry | obs value |
| --- | --- |
| C=Cc1ccc(CN(c2ccc3c(c2)OCO3)S(=O)(=O)c2ccc3nncn3c2)cc1 | -6.77 |
| CC(C)Cn1c(=O)c2sccc2n2c(=O)n(CC(=O)N(C)c3ccccc3)nc12 | -0.39 |
| Cc1nnc2c(SCC(=O)Nc3ccc(Br)cc3F)nc3ccccc3n12 | -10.05 |

Then this molecule:
Which Inhibition is listed for `CC(C)Cn1c(=O)c2sccc2n2c(=O)n(CC(=O)NC(C)C)nc12` ?
2.58
